Origin of measurements: patent US7547698B2

measurement-name: melting point

Some entries whose results are on file:
[[record]]
molecule = "O=C(Nc1ccc(Cl)cn1)c1cn2nc(N3CCN(C(=O)c4ccccc4C(F)(F)F)CC3)ccc2n1 [Example 1.7]"
observed_result = "265 to 268 °C"

[[record]]
molecule = "O=C(NCc1ccc(F)cc1)c1cn2nc(N3CCN(C(=O)c4ccccc4C(F)(F)F)CC3)ccc2n1 [Example 1.8]"
observed_result = "205 to 207 °C"

[[record]]
molecule = "CCCCCNC(=O)c1cn2nc(N3CCN(C(=O)c4ccccc4C(F)(F)F)CC3)ccc2n1"
observed_result = "179 to 180 °C"


Problem: Which melting point is listed for O=C(Nc1ccc(F)cc1)c1cn2nc(N3CCN(C(=O)c4ccccc4C(F)(F)F)CC3)ccc2n1 [Example 1.9] ?
Result: 115 to 117 °C

Problem: And the next one, CCCCNC(=O)c1cn2nc(N3CCN(C(=O)c4ccccc4C(F)(F)F)CC3)ccc2n1 [Example 1.6] ?
Result: 187 to 189 °C
